Target: UniProt:Q9UNQ0
Assay: Inhibition of ABCG2 (unknown origin) in HEK293 cells assessed as maximal inhibition of mitoxantrone efflux by fluorescence based flow cytometry
Recorded EC50 values for a group of molecules are listed next.
A number alone suffices; assume nM.

# annotated cases, reported EC50 shown
Q: What does the record list as EC50 for COC(=O)[C@H](CC(C)C)NC(=O)c1cc(=O)c2c(OCc3ccccc3Br)cccc2o1 ?
Result: 140

Q: What does the record list as EC50 for CC[C@@H](C)[C@H](NC(=O)c1cc(=O)c2c(OCc3ccccc3Br)cccc2o1)C(=O)N[C@H](C(=O)OC)C(C)C ?
Result: 70

Q: What does the record list as EC50 for CC[C@@H](C)[C@H](NC(=O)c1cc(=O)c2c(OCc3ccccc3Br)cccc2o1)C(=O)OC ?
Result: 100

New cases:
Q: What does the record list as EC50 for CC[C@@H](C)[C@H](NC(=O)c1cc(=O)c2c(OCc3ccc(Br)cc3)cccc2o1)C(=O)OC ?
Result: 590

----------
Recorded pEC50 values for a group of compounds are listed next.
Biological target: Broad substrate specificity ATP-binding cassette transporter ABCG2 (Homo sapiens, UniProt Q9UNQ0)
Sequence (Q9UNQ0 whole entry): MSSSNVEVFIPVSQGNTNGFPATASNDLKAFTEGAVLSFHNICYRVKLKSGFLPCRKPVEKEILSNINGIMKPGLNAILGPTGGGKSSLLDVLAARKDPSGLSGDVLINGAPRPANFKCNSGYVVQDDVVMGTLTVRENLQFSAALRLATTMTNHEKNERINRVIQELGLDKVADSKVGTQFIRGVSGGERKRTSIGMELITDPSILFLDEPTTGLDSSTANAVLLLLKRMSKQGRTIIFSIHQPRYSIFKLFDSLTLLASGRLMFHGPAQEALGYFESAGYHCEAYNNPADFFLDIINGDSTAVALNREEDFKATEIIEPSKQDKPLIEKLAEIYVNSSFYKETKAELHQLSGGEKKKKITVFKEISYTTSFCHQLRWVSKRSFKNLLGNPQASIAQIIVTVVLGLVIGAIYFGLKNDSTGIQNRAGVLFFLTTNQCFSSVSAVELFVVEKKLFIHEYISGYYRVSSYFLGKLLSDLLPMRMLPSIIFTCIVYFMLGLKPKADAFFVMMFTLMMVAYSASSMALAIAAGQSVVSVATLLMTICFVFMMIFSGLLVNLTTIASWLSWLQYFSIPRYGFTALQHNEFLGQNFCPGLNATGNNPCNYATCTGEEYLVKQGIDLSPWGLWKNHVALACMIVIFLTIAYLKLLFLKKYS
Experiment: Inhibition of ABCG2 (unknown origin) in HEK293 cells assessed as maximal inhibition of mitoxantrone efflux by fluorescence based flow cytometry
Assay type: cell-based
Formally, pEC50 is defined as -log10 of the concentration c, with c in mol/L.

Q: What does the record list as pEC50 for COC(=O)[C@H](Cc1c[nH]c2ccccc12)NC(=O)c1cc(=O)c2c(OCc3ccccc3Br)cccc2o1 ?
Result: 6.22

New cases:
Q: What does the record list as pEC50 for CC[C@@H](C)[C@H](NC(=O)c1cc(=O)c2c(OCc3ccccc3Br)cccc2o1)C(=O)N[C@@H](CC(C)C)C(=O)OC ?
Result: 7.15

Q: What does the record list as pEC50 for COC(=O)[C@H](Cc1ccccc1)NC(=O)c1cc(=O)c2c(OCc3ccc(Br)cc3)cccc2o1 ?
Result: 6.57

Q: What does the record list as pEC50 for COC(=O)[C@H](Cc1c[nH]c2ccccc12)NC(=O)c1cc(=O)c2c(OCc3ccc(Br)cc3)cccc2o1 ?
Result: 6.32
